experiment: Plasma PK after single ocular administration in beagle dogs; assay type: in vivo; conditions: male, Ridglan beagle, topical or ocular, 100 ug; beagle dog plasma; single ocular 100 μg; mean ± SD (% CV)
outcome.measure: half-life (h)
State the answer as a number, implicitly in h.

Reported half-life of OC[C@H]1O[C@@H](c2cc(Cc3ccc(C4CC4)cc3)c(Cl)c3c2CCO3)[C@H](O)[C@@H](O)[C@@H]1O : 10.6

* * *

assay: Plasma PK after single ocular administration in rats; format: in vivo; details: male, Brown Norway, topical or ocular, 25 ug; rat plasma; single ocular 25 μg, left eye; median [min, max]; n = 3
outcome.measure: Tmax (h)
State the answer as a number, implicitly in h.

Reported Tmax of OC[C@H]1O[C@@H](c2cc(Cc3ccc(C4CC4)cc3)c(Cl)c3c2CCO3)[C@H](O)[C@@H](O)[C@@H]1O [enavogliflozin] : 4
